Target: Acetylcholinesterase (Electrophorus electricus, UniProt O42275)
Sequence (O42275 whole entry): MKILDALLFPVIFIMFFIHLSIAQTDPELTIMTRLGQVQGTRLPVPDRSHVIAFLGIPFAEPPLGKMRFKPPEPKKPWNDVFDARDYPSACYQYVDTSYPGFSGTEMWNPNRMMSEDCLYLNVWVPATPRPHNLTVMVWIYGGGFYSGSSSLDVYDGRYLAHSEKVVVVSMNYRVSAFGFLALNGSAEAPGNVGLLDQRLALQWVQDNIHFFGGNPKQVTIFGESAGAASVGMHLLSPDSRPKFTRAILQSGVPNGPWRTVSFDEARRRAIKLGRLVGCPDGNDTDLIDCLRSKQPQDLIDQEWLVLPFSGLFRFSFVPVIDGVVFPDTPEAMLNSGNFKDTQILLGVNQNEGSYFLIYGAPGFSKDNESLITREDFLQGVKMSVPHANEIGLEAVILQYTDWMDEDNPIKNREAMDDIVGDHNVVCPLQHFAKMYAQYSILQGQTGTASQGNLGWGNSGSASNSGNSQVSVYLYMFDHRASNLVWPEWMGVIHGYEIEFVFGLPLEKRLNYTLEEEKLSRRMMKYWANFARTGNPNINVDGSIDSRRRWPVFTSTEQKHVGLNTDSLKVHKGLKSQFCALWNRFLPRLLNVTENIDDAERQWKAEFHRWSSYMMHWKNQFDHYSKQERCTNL
Reported values of pIC50 for individual entries
For clarity, pIC50 is expressed as the negative log10 of concentration in mol/L.

Please review the following examples before continuing.
{"test.smiles": "COc1cc(CNc2ccc(Nc3c4c(nc5ccccc35)CCCC4)cc2)ccc1O", "subject.of.test": "Acetylcholinesterase (Electrophorus electricus, UniProt O42275)", "meas.value": 5.67}
{"test.smiles": "COc1cc(CNCCCN2C(=O)c3cccc4cccc(c34)C2=O)ccc1O", "subject.of.test": "Acetylcholinesterase (Electrophorus electricus, UniProt O42275)", "meas.value": 5.00}
{"test.smiles": "COc1cc(/C=N/CCCN2C(=O)c3cccc4cccc(c34)C2=O)ccc1O", "subject.of.test": "Acetylcholinesterase (Electrophorus electricus, UniProt O42275)", "meas.value": 3.89}

API: the following record is the query input.
Bench note, Acetylcholinesterase (Electrophorus electricus, UniProt O42275): entry COc1cc(CNCCCN2C(=O)c3cccc4cccc(c34)C2=O)cc(OC)c1O , its pIC50 = 4.62
